# Target of assay: Jun bZIP K258A;Fos bZIP R146A (human;human, UniProt P05412;P01100 252-315;137-200, K258A|R146A)
# Sequence (P05412 252-315 K258A, chain 1 of 2): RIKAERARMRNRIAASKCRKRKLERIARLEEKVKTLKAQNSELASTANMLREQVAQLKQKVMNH
# Sequence (P01100 137-200 R146A, chain 2 of 2): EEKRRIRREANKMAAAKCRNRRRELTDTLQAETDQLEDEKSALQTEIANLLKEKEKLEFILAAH
# Protocol notes: ITC
Parameter measured: pKd
Hey, just a heads up that pKd is the negative log base 10 of the concentration in molar.

Q) Reported pKd for TRE duplex 15-mer (dsDNA) DNA 1: CGCGTGACTCACCCC DNA 2: GGGGTGAGTCACGCG : what is it?
A) 6.18
